Target: HCV NS3/4A protease complex (BMS strain) (Hepatitis C virus genotype 1a, UniProt P27958, C1454S)
Construct: HCV NS3/4A protease complex (amino acids 1027 to 1711); inferred from pET21b vector and Ni-NTA purification; made in house; host or cells: Escherichia coli BL21 (DE3), pET21b
Sequence (P27958 1027-1657 C1454S): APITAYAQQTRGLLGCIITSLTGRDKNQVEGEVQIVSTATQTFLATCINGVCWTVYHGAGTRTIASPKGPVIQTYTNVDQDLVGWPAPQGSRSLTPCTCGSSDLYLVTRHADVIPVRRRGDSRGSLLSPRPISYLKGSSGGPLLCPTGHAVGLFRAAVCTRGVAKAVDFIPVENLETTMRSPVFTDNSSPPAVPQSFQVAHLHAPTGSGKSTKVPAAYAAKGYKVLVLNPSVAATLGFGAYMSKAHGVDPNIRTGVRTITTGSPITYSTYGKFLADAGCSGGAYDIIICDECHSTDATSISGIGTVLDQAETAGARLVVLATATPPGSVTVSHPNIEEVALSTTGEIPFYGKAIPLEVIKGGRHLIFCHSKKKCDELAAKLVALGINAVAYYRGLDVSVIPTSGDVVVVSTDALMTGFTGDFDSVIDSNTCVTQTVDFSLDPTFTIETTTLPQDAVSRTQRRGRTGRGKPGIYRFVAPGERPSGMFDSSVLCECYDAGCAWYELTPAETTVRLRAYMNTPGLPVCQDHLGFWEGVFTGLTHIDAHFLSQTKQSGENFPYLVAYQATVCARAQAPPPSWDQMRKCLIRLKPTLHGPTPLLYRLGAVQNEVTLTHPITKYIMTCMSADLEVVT
Sequence (P27958 1658-1711 partner, looked up, stated change not applied): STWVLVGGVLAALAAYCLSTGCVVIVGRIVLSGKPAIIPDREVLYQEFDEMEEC
Test: Recombinant HCV NS3/4A protease complex FRET peptide assay, BMS strain
Type: biochemical, HCV genotype 1a
Settings: NS3/4A BMS Strain, activity range; read-out: IC50 a, b, c (Activity Table)
The entries below come with measured IC50 values attached.
experimental-endpoint: IC50

compound: C=CC1C[C@]1(NC(=O)[C@@H]1C[C@@H](Oc2cc(-c3ccccc3)nc3cc(OC)ccc23)CN1C(=O)[C@@H](NC(=O)OC(C)(C)C)C(C)(C)C)C(=O)NS(=O)(=O)c1ccc(C)cn1 (stereo in doubt) [Compound 10]
result: < 0.1 µM

compound: C=CC1C[C@]1(NC(=O)[C@@H]1C[C@@H](Oc2cc(-c3ccccc3)nc3cc(OC)ccc23)CN1C(=O)[C@@H](NC(=O)OC(C)(C)C)C(C)(C)C)C(=O)NS(=O)(=O)c1ccc(-c2cc(C(F)(F)F)nn2C)s1 (stereo in doubt) [Compound 17]
result: < 0.1 µM

compound: C=CC1C[C@]1(NC(=O)[C@@H]1C[C@@H](Oc2cc(-c3ccccc3)nc3cc(OC)ccc23)CN1C(=O)[C@@H](NC(=O)OC(C)(C)C)C(C)(C)C)C(=O)NS(=O)(=O)c1nnc(NC(C)=O)s1 (stereo in doubt) [Compound 12]
result: 0.1 to 1 µM

compound: C=CC1C[C@]1(NC(=O)[C@@H]1C[C@@H](Oc2cc(-c3ccccc3)nc3cc(OC)ccc23)CN1C(=O)[C@@H](NC(=O)OC(C)(C)C)C(C)(C)C)C(=O)NS(=O)(=O)c1c(C)noc1C (stereo in doubt) [Compound 14]
result: < 0.1 µM
